Data provenance: patent US9579314B2

# measured.target: UniProt:P20309
# Sequence (P20309 whole entry): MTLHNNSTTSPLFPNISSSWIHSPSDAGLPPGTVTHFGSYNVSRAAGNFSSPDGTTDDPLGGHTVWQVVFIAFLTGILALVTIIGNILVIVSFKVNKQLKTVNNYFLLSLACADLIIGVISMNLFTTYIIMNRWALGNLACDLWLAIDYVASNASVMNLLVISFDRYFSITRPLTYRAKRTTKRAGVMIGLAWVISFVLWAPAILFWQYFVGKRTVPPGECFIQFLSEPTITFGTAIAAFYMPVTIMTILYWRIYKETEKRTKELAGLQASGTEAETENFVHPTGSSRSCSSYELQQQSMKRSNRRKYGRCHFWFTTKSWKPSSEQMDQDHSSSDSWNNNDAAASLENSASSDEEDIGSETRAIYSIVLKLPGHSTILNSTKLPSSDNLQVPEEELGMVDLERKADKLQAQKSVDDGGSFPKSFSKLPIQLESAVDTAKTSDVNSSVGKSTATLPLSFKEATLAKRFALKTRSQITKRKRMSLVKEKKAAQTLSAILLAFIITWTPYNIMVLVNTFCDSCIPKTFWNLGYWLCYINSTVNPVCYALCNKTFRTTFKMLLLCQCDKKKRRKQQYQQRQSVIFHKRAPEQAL
pIC50: −log10 of the molar value.
measure: pIC50

Check out these entries, answers already filled in.
{"compound": "O=C(COc1cccc([C@](O)(C(=O)OCC2CCN(Cc3ccccc3)CC2)c2ccccc2)c1)N[C@H]1C[C@H](NC(=O)c2ccc(CNC[C@H](O)c3ccc(O)c4[nH]c(=O)ccc34)c(OC(F)(F)F)c2)C1", "result": "8.52 to 9.52"}
{"compound": "O=C(c1ccc(CNC[C@H](O)c2ccc(O)c3[nH]c(=O)ccc23)cc1)N1C[C@H]2CCN(C(=O)COc3cccc([C@](O)(C(=O)OCC4CCN(Cc5ccccc5)CC4)c4ccccc4)c3)[C@H]2C1", "result": "8.52 to 9.52"}
{"compound": "O=C(COc1cccc([C@](O)(C(=O)OCC2CCN(Cc3ccccc3)CC2)c2ccccc2)c1)N[C@H]1C[C@H](NC(=O)c2ccc(CNC[C@H](O)c3ccc(O)c4[nH]c(=O)ccc34)cn2)C1", "result": "8.52 to 9.52"}
{"compound": "O=C(N[C@@H]1CCN(C(=O)COc2cccc([C@](O)(C(=O)OCC3CCN(Cc4ccccc4)CC3)c3ccccc3)c2)C1)c1ccc(CCNC[C@H](O)c2ccc(O)c3[nH]c(=O)ccc23)cc1", "result": "8.52 to 9.52"}
{"compound": "O=C(COc1cccc([C@](O)(C(=O)OCC2CCN(Cc3ccccc3)CC2)c2ccccc2)c1)N1CCC2(CC1)CN(C(=O)c1ccc(CCNC[C@H](O)c3ccc(O)c4[nH]c(=O)ccc34)cc1)C2", "result": "> 9.52"}
{"compound": "COc1cc(CNC[C@H](O)c2ccc(O)c3[nH]c(=O)ccc23)ccc1C(=O)NCc1ccc(COc2cccc([C@](O)(C(=O)OCC3CCN(Cc4ccccc4)CC3)c3ccccc3)c2)cc1 [Compound 42E]", "result": "8.52 to 9.52"}
{"compound": "COc1c(CNC[C@H](O)c2ccc(O)c3[nH]c(=O)ccc23)ccc(C(=O)N[C@H]2C[C@H](NC(=O)COc3cccc([C@](O)(C(=O)OCC4CCN(Cc5ccccc5)CC4)c4ccccc4)c3)C2)c1F", "result": "8.52 to 9.52"}
{"compound": "O=C(COc1cccc([C@](O)(C(=O)OCC2CCN(Cc3ccccc3)CC2)c2ccccc2)c1)N1CCN(C(=O)c2ccc(CCNC[C@H](O)c3ccc(O)c4[nH]c(=O)ccc34)cc2)CC1", "result": "8.52 to 9.52"}

Would you kindly look at the next entry?
Form field - read-out: pIC50; system: UniProt:P20309; submitted item: COc1cc(CNC[C@H](O)c2ccc(O)c3[nH]c(=O)ccc23)ccc1C(=O)NCCCOc1cccc([C@](O)(C(=O)OCC2CCN(Cc3ccccc3)CC2)c2ccccc2)c1 [Compound 32B]
> 9.52
